Target: T1, N-terminal β′-COP propeller (residues 1–304), untagged (yeast (S. cerevisiae), UniProt P41811 1-304)
T1 sequence (looked up): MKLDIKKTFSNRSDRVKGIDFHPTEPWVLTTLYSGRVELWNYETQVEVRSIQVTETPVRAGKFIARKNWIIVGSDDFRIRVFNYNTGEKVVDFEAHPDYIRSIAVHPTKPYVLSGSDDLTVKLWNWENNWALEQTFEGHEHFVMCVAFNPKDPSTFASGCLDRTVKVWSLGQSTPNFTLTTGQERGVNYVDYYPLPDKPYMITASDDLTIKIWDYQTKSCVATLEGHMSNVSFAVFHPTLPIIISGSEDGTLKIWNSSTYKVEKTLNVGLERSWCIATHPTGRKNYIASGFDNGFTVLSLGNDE
Assay: ITC
quantity name: Kd

| binder | result |
| --- | --- |
| untagged Glo3 BoCCS fragment (residues 230–300) (domain or fragment, yeast (S. cerevisiae), UniProt P38682 230-300, looked up) SQDKKKHSILSSSRKPTRLTAKKVDKSQAEDLFDQFKKEAQQEKEDEFTNSSSSTKIRQNDYDSQFMNNSK | < 300 µM |

Where do these numbers come from? They come from paper PMC9960064.
